subjectOfTest: human α-synuclein (Homo sapiens, UniProt P37840)
Construct: the full-length gene for untagged human α-synuclein was inserted; made in house; host or cells: E. coli BL21(DE3), plasmid derived from pT7 or pET11a
assayDetails: Cell-free Thioflavin T assay of α-synuclein aggregation (αSyn ThT Assay)
Assay type: biochemical
statedConditions: αSyn 50 μM; compounds at 100 μM; class symbol; read-out: αSyn ThT Assay % Inhibition (activity range)
reportedProperty: inhibition at 100 µM

Some entries whose results are on file:
compound: CCN1CC(C(=O)O)n2c(c(-c3cccc(C(F)(F)F)c3)c(Cc3cccc4ccccc34)cc2=O)S1(=O)=O (single isomer, unassigned) [Compound 015a]
inhibition at 100 µM: > 60%
--
compound: Cn1c(=O)c2c(nc(CCCCCCN3CC(C(=O)O)n4c(c(-c5cccc(C(F)(F)F)c5)c(Cc5cccc6ccccc56)cc4=O)S3(=O)=O)n2C)n(C)c1=O (stereo not drawn)
inhibition at 100 µM: 11 to 30%
--
compound: Nc1c(Cc2cccc3ccccc23)c(-c2cccc(C(F)(F)F)c2)c2n(c1=O)C(C(=O)O)CS2 (single isomer, unassigned) [Compound 020b]
inhibition at 100 µM: 11 to 30%
--
compound: CCCCCN1CC(C(=O)O)n2c(c(-c3cccc(C(F)(F)F)c3)c(Cc3cccc4ccccc34)cc2=O)S1(=O)=O (racemic) [Compound 025]
inhibition at 100 µM: 31 to 60%
--
compound: O=C(O)C1CSc2c(-c3cccc(C(F)(F)F)c3)c(Cc3cccc4ccccc34)nc(=O)n21 (stereo not drawn)
inhibition at 100 µM: 31 to 60%

Sample CN1CC(C(=O)O)n2c1c(-c1cccc(C(F)(F)F)c1)c(Cc1cccc3ccccc13)c(Br)c2=O (stereo not drawn) , system: human α-synuclein (Homo sapiens, UniProt P37840). Its inhibition at 100 µM is 31 to 60%

Sample CN1CC(C(=O)O)n2c(c(-c3cccc(C(F)(F)F)c3)c(Cc3cccc4ccccc34)c(NC3CCCC3)c2=O)S1(=O)=O (stereo not drawn) , system: human α-synuclein (Homo sapiens, UniProt P37840). Its inhibition at 100 µM is 31 to 60%

Sample O=C(O)C1CN(CCCCCO)S(=O)(=O)c2c(-c3cccc(C(F)(F)F)c3)c(Cc3cccc4ccccc34)c(NC3CCCC3)c(=O)n21 (stereo not drawn) , system: human α-synuclein (Homo sapiens, UniProt P37840). Its inhibition at 100 µM is 31 to 60%

Sample O=C(O)C1CSc2c(-c3cccc(C(F)(F)F)c3)c(Cc3cccc4ccccc34)cc(=S)n21 (stereo not drawn) , system: human α-synuclein (Homo sapiens, UniProt P37840). Its inhibition at 100 µM is 31 to 60%

Sample O=C(O)C1CN(CCCO)S(=O)(=O)c2c(-c3cccc(C(F)(F)F)c3)c(Cc3cccc4ccccc34)cc(=O)n21 (stereo not drawn) , system: human α-synuclein (Homo sapiens, UniProt P37840). Its inhibition at 100 µM is 31 to 60%

Sample CNC(=O)C1CN(C)S(=O)(=O)c2c(-c3cccc(C(F)(F)F)c3)c(Cc3cccc4ccccc34)cc(=O)n21 (stereo not drawn) , system: human α-synuclein (Homo sapiens, UniProt P37840). Its inhibition at 100 µM is 11 to 30%

----------
subjectOfTest: E. coli CsgA (Escherichia coli, UniProt P28307)
Construct: made in house; host or cells: E. coli NEB 3016 slyD::kan, pET11d
Sequence (P28307 23-151): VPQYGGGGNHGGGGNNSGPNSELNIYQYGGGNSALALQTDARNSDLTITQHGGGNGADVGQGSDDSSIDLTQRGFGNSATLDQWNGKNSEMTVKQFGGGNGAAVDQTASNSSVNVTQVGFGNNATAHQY
assayDetails: In vitro ThioflavinT assay of CsgA aggregation (CsgA ThT Assay)
Assay type: biochemical
statedConditions: read-out: CsgA ThT Assay (10 μM CsgA) % Control AUC at 1005 minutes, 100 μM, mean AUC as % of DMSO control; CsgA 10 μM, black plates; compound 100 μM; 1005 minutes
Listed molecules paired with reported remaining activity at 100 µM
A complete answer gives the number followed by the unit.

Some entries whose results are on file:
molecule: O=C(O)C1CSc2c(-c3cccc(C(F)(F)F)c3)c(Cc3cccc4ccccc34)cc(=O)n21 (racemic) [Compound 011]
experimentalValue: 62%
//
molecule: CC1(C)Sc2c(-c3cccc(C(F)(F)F)c3)c(Cc3cccc4ccccc34)nc(=O)n2C1C(=O)O (stereo not shown)
experimentalValue: 22%
//
molecule: Nc1c(Cc2cccc3ccccc23)c(-c2cccc(C(F)(F)F)c2)c2n(c1=O)C(C(=O)O)CS2(=O)=O (stereo not shown)
experimentalValue: 34%
//
molecule: O=C(O)CC1CS(=O)(=O)c2c(-c3cccc(C(F)(F)F)c3)c(Cc3cccc4ccccc34)cc(=O)n21 (stereo not shown)
experimentalValue: 15%
//
molecule: CCCCCN1CC(C(=O)O)n2c(c(-c3cccc(C(F)(F)F)c3)c(Cc3cccc4ccccc34)c(N)c2=O)S1(=O)=O (stereo not shown)
experimentalValue: 30%

Lookup result for O=C(O)C1CN(CCCCO)S(=O)(=O)c2c(-c3cccc(C(F)(F)F)c3)c(Cc3cccc4ccccc34)c(NC3CCCC3)c(=O)n21 (stereo not shown) ; measured remaining activity at 100 µM: 15%

Lookup result for CN1CC(C(=O)O)n2c(c(-c3cccc(C(F)(F)F)c3)c(Cc3cccc4ccccc34)c(NC3CCNCC3)c2=O)S1(=O)=O (stereo not shown) ; measured remaining activity at 100 µM: 65%

----------
subjectOfTest: E. coli CsgA (Escherichia coli)
Construct: made in house; host or cells: E. coli NEB 3016 slyD::kan, pET11d
assayDetails: In vitro ThioflavinT assay of CsgA aggregation (CsgA ThT Assay)
Assay type: biochemical
statedConditions: read-out: CsgA ThT Assay (2 μM CsgA) % Control Bmax 25 μM, activity range, class symbol; CsgA 2 μM, white plates; compound 25 μM
Listed compounds paired with reported remaining activity at 25 µM

Some entries whose results are on file:
compound: CCCN1CC(C(=O)O)n2c(c(-c3cccc(C(F)(F)F)c3)c(Cc3cccc4ccccc34)c(Cl)c2=O)S1(=O)=O (stereo not shown)
subjectOfTest: E. coli CsgA (Escherichia coli)
experimentalValue: > 60%
--
compound: CCNC(=O)c1c(Cc2cccc3ccccc23)c(-c2cccc(C(F)(F)F)c2)c2n(c1=O)C(C(=O)O)CN(C)S2(=O)=O (stereo not shown)
subjectOfTest: E. coli CsgA (Escherichia coli)
experimentalValue: > 60%
--
compound: CCCCN1CC(C(=O)O)n2c1c(-c1cccc(C(F)(F)F)c1)c(Cc1cccc3ccccc13)c(Cl)c2=O (stereo not shown)
subjectOfTest: E. coli CsgA (Escherichia coli)
experimentalValue: 31 to 60%

Now for a further compound.
Sample CCCN1CC(C(=O)O)n2c1c(-c1cccc(C(F)(F)F)c1)c(Cc1cccc3ccccc13)c(Cl)c2=O (stereo not shown) , system: E. coli CsgA (Escherichia coli). Its remaining activity at 25 µM is 31 to 60%

----------
subjectOfTest: human α-synuclein (Homo sapiens)
Construct: the full-length gene for untagged human α-synuclein was inserted; made in house; host or cells: E. coli BL21(DE3), plasmid derived from pT7 or pET11a
assayDetails: Cell-free Thioflavin T assay of α-synuclein aggregation (αSyn ThT Assay)
Assay type: biochemical
statedConditions: mean percent inhibition relative to DMSO control; αSyn 50 μM, compounds 100 μM; read-out: αSyn ThT Assay % inhibition
Decide by inhibition at 100 µM: equal to or exceeding 70% means T, less means F.

Sample answers from the record:
compound: CCCN1CC(C(=O)O)n2c(c(-c3cccc(C(F)(F)F)c3)c(Cc3cccc4ccccc34)c(NC(=O)C(C)C)c2=O)S1(=O)=O (stereo not shown) [Compound 152]
classAssignment: F
--
compound: COc1cccc(CN2CC(C(=O)O)n3c2c(-c2cccc(C(F)(F)F)c2)c(Cc2cccc4ccccc24)c(Cl)c3=O)c1 (stereo not shown) [Compound 191]
classAssignment: F
--
compound: O=C(O)C1CN(Cc2cccnc2)c2c(-c3cccc(C(F)(F)F)c3)c(Cc3cccc4ccccc34)c(Cl)c(=O)n21 (stereo not shown) [Compound 169]
classAssignment: F

Q) Tell me whether inhibition at 100 µM is at least 70% here: O=C(O)C1CN(Cc2ccccc2)c2c(-c3cccc(Br)c3)c(Cc3cccc4ccccc34)c(Cl)c(=O)n21 (stereo not shown) [Compound 198]
A) T

Q) Tell me whether inhibition at 100 µM is at least 70% here: O=C(O)C1CN(Cc2ccccc2CO)c2c(-c3cccc(C(F)(F)F)c3)c(Cc3cccc4ccccc34)c(Cl)c(=O)n21 (stereo not shown) [Compound 181]
A) F

Q) Tell me whether inhibition at 100 µM is at least 70% here: CCCN1CC(C(=O)O)n2c(c(-c3cccc(C(F)(F)F)c3)c(Cc3cccc4ccccc34)c(O)c2=O)S1(=O)=O (stereo not shown) [Compound 141]
A) T

----------
subjectOfTest: E. coli CsgA (Escherichia coli, UniProt P28307)
Construct: made in house; host or cells: E. coli NEB 3016 slyD::kan, pET11d
assayDetails: In vitro ThioflavinT assay of CsgA aggregation (CsgA ThT Assay)
Type: biochemical
statedConditions: read-out: CsgA ThT Assay (10 μM CsgA) % Control AUC at 1005 minutes, 100 μM (activity range), CsgA 10 μM, black plates; compound 100 μM; 1005 minutes; class symbol
reportedProperty: remaining activity at 100 µM

compound: CCCN1CC(C(=O)O)n2c(c(-c3cccc(C(F)(F)F)c3)c(Cc3cccc4ccccc34)c(N)c2=O)S1(=O)=O (stereo not shown)
experimentalValue: 11 to 31%
//
compound: O=C(O)CN1CC(C(=O)O)n2c(c(-c3cccc(C(F)(F)F)c3)c(Cc3cccc4ccccc34)cc2=O)S1(=O)=O (stereo not shown)
experimentalValue: 31 to 60%
//
compound: CCCCCN1CC(C(=O)O)n2c(c(-c3cccc(C(F)(F)F)c3)c(Cc3cccc4ccccc34)c(N)c2=O)S1(=O)=O (stereo not shown)
experimentalValue: 11 to 31%
//
compound: O=C(O)c1c(Cc2ccccc2)sc2c(-c3cccc(C(F)(F)F)c3)c(Cc3cccc4ccccc34)cc(=O)n12
experimentalValue: > 60%
//
compound: O=C(O)CC1CS(=O)(=O)c2c(-c3cccc(C(F)(F)F)c3)c(Cc3cccc4ccccc34)cc(=O)n21 (stereo not shown)
experimentalValue: 11 to 31%

Lookup result for CCCN1CC(C(=O)O)n2c(c(-c3cccc(C(F)(F)F)c3)c(Cc3cccc4ccccc34)cc2=O)S1(=O)=O (single isomer, unassigned) [Compound 016a] ; measured remaining activity at 100 µM: 11 to 31%

Lookup result for CN1CC(C(=O)O)n2c(c(-c3cccc(C(F)(F)F)c3)c(Cc3cccc4ccccc34)c(N3CCNCC3)c2=O)S1(=O)=O (stereo not shown) ; measured remaining activity at 100 µM: 31 to 60%
